# assay target: ATP-binding cassette sub-family C member 2 (Homo sapiens)
# Sequence (Q92887 whole entry): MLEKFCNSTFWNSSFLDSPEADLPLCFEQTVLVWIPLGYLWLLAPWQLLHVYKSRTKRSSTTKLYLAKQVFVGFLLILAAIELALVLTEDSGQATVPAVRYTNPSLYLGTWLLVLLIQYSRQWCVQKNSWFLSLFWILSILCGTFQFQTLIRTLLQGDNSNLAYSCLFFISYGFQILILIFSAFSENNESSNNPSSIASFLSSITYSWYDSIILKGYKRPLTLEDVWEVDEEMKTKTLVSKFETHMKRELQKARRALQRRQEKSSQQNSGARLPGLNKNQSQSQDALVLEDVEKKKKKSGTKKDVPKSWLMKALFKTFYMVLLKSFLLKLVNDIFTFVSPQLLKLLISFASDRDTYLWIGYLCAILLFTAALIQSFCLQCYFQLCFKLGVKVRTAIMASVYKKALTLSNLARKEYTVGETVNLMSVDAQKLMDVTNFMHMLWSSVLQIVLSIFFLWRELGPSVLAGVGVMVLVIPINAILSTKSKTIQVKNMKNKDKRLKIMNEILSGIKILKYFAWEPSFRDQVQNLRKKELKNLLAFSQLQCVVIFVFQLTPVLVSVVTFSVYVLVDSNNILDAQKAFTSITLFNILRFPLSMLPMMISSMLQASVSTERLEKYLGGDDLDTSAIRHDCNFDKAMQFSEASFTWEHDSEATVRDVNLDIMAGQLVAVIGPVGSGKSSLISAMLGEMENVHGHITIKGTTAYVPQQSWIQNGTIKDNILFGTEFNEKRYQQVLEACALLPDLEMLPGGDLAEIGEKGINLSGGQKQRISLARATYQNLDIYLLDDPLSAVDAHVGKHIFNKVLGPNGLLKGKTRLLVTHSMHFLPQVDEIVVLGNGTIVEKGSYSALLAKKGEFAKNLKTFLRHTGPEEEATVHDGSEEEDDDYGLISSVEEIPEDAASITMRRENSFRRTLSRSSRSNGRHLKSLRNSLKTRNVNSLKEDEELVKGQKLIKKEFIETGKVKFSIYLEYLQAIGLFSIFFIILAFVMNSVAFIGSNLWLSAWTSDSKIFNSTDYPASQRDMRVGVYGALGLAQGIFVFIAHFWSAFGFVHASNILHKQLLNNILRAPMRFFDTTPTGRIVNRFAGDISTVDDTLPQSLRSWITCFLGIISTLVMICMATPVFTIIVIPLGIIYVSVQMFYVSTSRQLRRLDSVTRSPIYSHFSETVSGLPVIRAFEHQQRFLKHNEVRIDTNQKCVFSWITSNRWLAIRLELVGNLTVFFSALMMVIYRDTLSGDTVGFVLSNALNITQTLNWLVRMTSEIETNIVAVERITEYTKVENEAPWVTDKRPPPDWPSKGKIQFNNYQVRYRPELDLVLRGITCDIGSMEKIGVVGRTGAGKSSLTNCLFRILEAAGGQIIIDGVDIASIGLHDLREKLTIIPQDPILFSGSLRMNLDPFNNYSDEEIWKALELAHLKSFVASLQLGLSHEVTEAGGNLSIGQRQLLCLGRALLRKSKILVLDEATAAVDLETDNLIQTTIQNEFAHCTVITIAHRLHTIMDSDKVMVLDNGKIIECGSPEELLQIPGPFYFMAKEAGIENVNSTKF
# assay protocol: Inhibition of human MRP2 overexpressed in Sf9 cell membrane vesicles assessed as uptake of [3H]-estradiol-17beta-D-glucuronide in presence of ATP and GSH measured after 20 mins by membrane vesicle transport assay
pIC50: −log10 of the molar value.
endpoint label: pIC50

Examples with answers:
Nc1ccn([C@@H]2O[C@H](CO)[C@@H](O)[C@@H]2O)c(=O)n1 [CYTARABINE] :: < 3.88
CCN(CC)CCNC(=O)c1ccc(NC(C)=O)cc1 [ACECAINIDE] :: < 3.88

Cc1cc(=O)n(-c2ccccc2)n1C [ANTIPYRINE] yielded pIC50 of < 3.88

Cc1cccc(Nc2ccccc2C(=O)O)c1C [MEFENAMIC ACID] yielded pIC50 of < 3.88

COC(=O)[C@H](c1ccccc1Cl)N1CCc2sccc2C1 [CLOPIDOGREL BISULFATE] yielded pIC50 of < 3.88

CC(SC(=O)c1cccs1)C(=O)NCC(=O)O (stereo not given) [STEPRONIN] yielded pIC50 of < 3.88

Cn1cnc([N+](=O)[O-])c1Sc1ncnc2nc[nH]c12 [AZATHIOPRINE] yielded pIC50 of < 3.88

Cc1cccn2c(=O)c(-c3nnn[nH]3)cnc12 [PEMIROLAST POTASSIUM] yielded pIC50 of < 3.88

Cc1c(O)cccc1C(=O)N[C@@H](CSc1ccccc1)[C@H](O)CN1C[C@H]2CCCC[C@H]2C[C@H]1C(=O)NC(C)(C)C yielded pIC50 of < 3.88

Cc1ncc([N+](=O)[O-])n1CCO [METRONIDAZOLE] yielded pIC50 of < 3.88

###

# assay protocol: AUC in human at 20 to 60 mg, po QD after 24 hrs
# Type: ADME, organism-based
# particulars: in vivo
endpoint label: AUC at 24 h (µM·h)
The figure you give is taken to be in µM·h; do not add the unit.

COC(=O)C1=C(C)NC(C)=C(C(=O)OCC(C)C)C1c1ccccc1[N+](=O)[O-] (stereo unspecified) yielded AUC at 24 h of 0.134

###

# assay protocol: AUC in human at 0.075 to 0.26 mg/kg, po after 24 hrs
# Assay type: ADME, organism-based
# particulars: in vivo
endpoint label: AUC at 24 h (µM·h)
The figure you give is taken to be in µM·h; do not add the unit.

C=CC[C@@H]1/C=C(\C)C[C@H](C)C[C@H](OC)[C@H]2O[C@@](O)(C(=O)C(=O)N3CCCC[C@H]3C(=O)O[C@H](/C(C)=C/[C@@H]3CC[C@@H](O)[C@H](OC)C3)[C@H](C)[C@@H](O)CC1=O)[C@H](C)C[C@@H]2OC [TACROLIMUS ANHYDROUS] yielded AUC at 24 h of 0.252

###

# assay target: UniProtKB Q92887
# assay protocol: Inhibition of human MRP2 overexpressed in Sf9 cell membrane vesicles assessed as uptake of [3H]-estradiol-17beta-D-glucuronide in presence of ATP and GSH measured after 20 mins by membrane vesicle transport assay
pIC50: −log10 of the molar value. Counter-ions that a name gives are not always drawn.
endpoint label: pIC50

Examples with answers:
OC(CNCC(O)C1CCc2cc(F)ccc2O1)C1CCc2cc(F)ccc2O1 (stereo unspecified) [NEBIVOLOL HYDROCHLORIDE] :: < 3.88
COc1ccc2cc1Oc1cc3c(cc1OC)CC[N+](C)(C)[C@H]3Cc1ccc(cc1)Oc1c(OC)c(OC)cc3c1[C@@H](C2)[N+](C)(C)CC3 [METOCURINE] :: < 3.88
C=CC[C@@H]1/C=C(\C)C[C@H](C)C[C@H](OC)[C@H]2O[C@@](O)(C(=O)C(=O)N3CCCC[C@H]3C(=O)O[C@H](/C(C)=C/[C@@H]3CC[C@@H](O)[C@H](OC)C3)[C@H](C)[C@@H](O)CC1=O)[C@H](C)C[C@@H]2OC [TACROLIMUS ANHYDROUS] :: 4.39
COc1ccc(/C=C/C(=O)Nc2ccccc2C(=O)O)cc1OC :: < 3.88
COC(=O)C1=C(C)NC(C)=C(C(=O)OCCN(C)Cc2ccccc2)C1c1cccc([N+](=O)[O-])c1 (stereo unspecified) [NICARDIPINE] :: < 3.88

The record that follows has no pIC50 shown yet.
N[C@@H](C(=O)N[C@@H]1C(=O)N2C(C(=O)O)=C(Cl)CS[C@H]12)c1ccccc1 [CEFACLOR ANHYDROUS] yielded pIC50 of < 3.88

This collection of values is drawn from ChEMBL document CHEMBL4028801.
